For each of the compounds below, state its inhibition at 10 µM.
# TARGET UNDER TEST: OXA-48 Enzyme (Klebsiella pneumoniae)
# Sequence (Q6XEC0 23-265 limits assumed): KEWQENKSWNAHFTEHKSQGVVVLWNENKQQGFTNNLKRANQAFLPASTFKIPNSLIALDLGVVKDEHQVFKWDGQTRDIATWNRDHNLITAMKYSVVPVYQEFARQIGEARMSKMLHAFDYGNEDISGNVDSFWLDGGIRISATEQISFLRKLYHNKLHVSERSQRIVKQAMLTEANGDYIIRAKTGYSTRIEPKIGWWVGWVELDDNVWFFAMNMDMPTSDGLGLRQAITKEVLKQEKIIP
# TEST SUMMARY: Imipenem hydrolysis monitored by UV absorbance slope, OXA-48 enzyme
# Assay type: biochemical
# CONDITION LABEL: read-out: OXA-48 Enzyme Inhibition at 10 μM
Numbers only, in %.

Here are 5 compounds together with their reported answers.
>  <COMPOUND>
COc1ccc(C2N=C(c3ccccc3)C(C)N2c2ccc(I)cc2)cc1 (stereo not drawn) [Compound 2]

>  <MEASURED METRIC>
inhibition at 10 µM

>  <REPORTED>
9

$$$$
>  <COMPOUND>
C/C(=N\c1ccc(Cl)cc1)C1(c2ccccc2)N=C(c2ccccc2)N(c2ccc(Cl)cc2)C1C (stereo not drawn) [Compound 26]

>  <MEASURED METRIC>
inhibition at 10 µM

>  <REPORTED>
22

$$$$
>  <COMPOUND>
C/C(=N\c1ccccc1)C1(c2ccc(Cl)cc2)N=C(c2ccc(Cl)cc2)N(c2ccccc2)C1C (stereo not drawn) [Compound 24]

>  <MEASURED METRIC>
inhibition at 10 µM

>  <REPORTED>
38

$$$$
>  <COMPOUND>
C/C(=N\c1ccc(Br)cc1)C1(c2ccc(Cl)cc2)N=C(c2ccc(Cl)cc2)N(c2ccc(Br)cc2)C1C (stereo not drawn) [Compound 29]

>  <MEASURED METRIC>
inhibition at 10 µM

>  <REPORTED>
36

$$$$
>  <COMPOUND>
C/C(=N\c1ccc(Cl)cc1)C1(c2ccc(Cl)cc2)N=C(c2ccc(Cl)cc2)N(c2ccc(Cl)cc2)C1C (stereo not drawn) [Compound 28]

>  <MEASURED METRIC>
inhibition at 10 µM

>  <REPORTED>
31

$$$$

Quick batch: inhibition at 10 µM for everything below.
1. C/C(=N\c1ccc(Br)cc1)C1(c2ccccc2)N=C(c2ccccc2)N(c2ccc(Br)cc2)C1C (stereo not drawn) [Compound 27]
2. COc1ccc(C2N=C(c3ccccc3)C(C)N2c2ccc(C(F)(F)F)cc2)cc1 (stereo not drawn) [Compound 5]
3. COc1ccc(C2N=C(c3ccccc3)C(C)N2c2ccc(OC)cc2)cc1 (stereo not drawn) [Compound 3]
4. COc1ccc(C2N=C(c3ccccc3)C(C)N2c2ccccc2)cc1 (stereo not drawn) [Compound 1]

Marked response:
38
19
11
9
